target: hMAGL (Homo sapiens)
So basically: is IC50 under 0.07 µM? Then y. Not under? Then n.

molecule	assigned-class
O=C(N1CC2(CC(n3cnc(C(F)(F)F)n3)C2)C1)N1CC2(CN(Cc3cc(C(F)(F)F)ns3)C2)C1 [Example 153]	y
CCn1nc(C(F)(F)F)cc1CN1CC2(C1)CN(C(=O)N1CC3(CC(n4cnc(C(F)(F)F)n4)C3)C1)C2 [Example 169]	y

Task item: Quick check: does O=C(N1CC2(CC(n3cnc(C4CC4)n3)C2)C1)N1CC2(CN(Cc3ccn(CC(F)(F)F)n3)C2)C1 [Example 100] have IC50 under 0.07 µM?
Reply: n

###

The reader will find reported pIC50 values listed item by item below.
Target: hMAGL (Homo sapiens)
Sequence (Q99685 1-303): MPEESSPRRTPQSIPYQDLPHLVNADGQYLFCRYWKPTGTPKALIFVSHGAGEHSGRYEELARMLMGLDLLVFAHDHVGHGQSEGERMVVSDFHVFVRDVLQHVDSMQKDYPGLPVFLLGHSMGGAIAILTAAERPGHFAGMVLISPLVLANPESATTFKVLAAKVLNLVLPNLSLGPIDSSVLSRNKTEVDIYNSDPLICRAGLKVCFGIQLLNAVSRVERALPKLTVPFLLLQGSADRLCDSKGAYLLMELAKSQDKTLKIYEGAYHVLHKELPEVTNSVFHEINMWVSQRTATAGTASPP
The quantity pIC50 is defined as the negative base-10 logarithm of the molar concentration.

Known pIC50 results, listed for orientation:
molecule	endpoint-name	readout-value
O=C(N1CC2(CC(Cc3noc(C(F)(F)F)n3)C2)C1)N1CC2(CC(n3cnc(C4(O)CC4)n3)C2)C1 [Example 105]	pIC50	7.85
O=C(N1CC2(CCN(Cc3cc(C(F)(F)F)on3)CC2)C1)N1CC2(CC(n3cnc(C4CC4)n3)C2)C1 [Example 80]	pIC50	8.06
CCn1nc(C(F)(F)F)cc1CN1CC2(C1)CN(C(=O)N1CC3(CC(n4cnc(C5(O)CC5)n4)C3)C1)C2 [Example 168]	pIC50	7.34
O=C(N1CC2(CC(n3cnc(C(F)(F)F)n3)C2)C1)N1CC2(CN(Cc3cc(C(F)(F)F)on3)C2)C1 [Example 189]	pIC50	7.30
Cn1ncc(C(F)(F)F)c1CC1CC2(C1)CN(C(=O)N1CC3(CC(n4cnc(C5(O)CC5)n4)C3)C1)C2 [Example 3]	pIC50	8.66

Then there is this molecule:
Task item: Form field: pIC50 recorded for Cc1sc(CN2CC3(C2)CN(C(=O)N2CC4(CC(n5cnc(C(F)(F)F)n5)C4)C2)C3)nc1C(F)(F)F [Example 54] with hMAGL (Homo sapiens) (enter value)
Reply: 7.07

###

Target chain: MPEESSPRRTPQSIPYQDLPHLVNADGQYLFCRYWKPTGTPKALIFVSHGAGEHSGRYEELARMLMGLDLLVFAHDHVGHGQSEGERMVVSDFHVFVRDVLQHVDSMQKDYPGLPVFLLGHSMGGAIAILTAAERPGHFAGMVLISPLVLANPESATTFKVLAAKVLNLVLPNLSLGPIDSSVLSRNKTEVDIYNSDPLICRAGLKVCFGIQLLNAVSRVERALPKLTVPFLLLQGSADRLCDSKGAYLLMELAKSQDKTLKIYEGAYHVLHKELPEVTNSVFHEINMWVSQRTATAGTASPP
So basically: is IC50 under 2 nM? Then condition met. Not under? Then condition not met.

Cn1ncc(C(F)(F)F)c1CN1CC2(C1)CN(C(=O)N1CC3(CC(c4cc(C5CC5)n[nH]4)C3)C1)C2 condition met
Cn1ncc(CN2CC3(C2)CN(C(=O)N2CC4(CC(n5cnc(C(F)(F)F)n5)C4)C2)C3)c1S(N)(=O)=O condition not met
O=C(N1CC2(CC(Cn3ccnc3C(F)(F)F)C2)C1)N1CC2(CC(n3cnc(C4(O)CC4)n3)C2)C1 condition not met

Task item: Quick check: does "O=C(N1CC2(CC(Cc3cn(CC(F)(F)F)nc3C(F)(F)F)C2)C1)N1CC2(CC(n3cnc(C4CC4)n3)C2)C1" have IC50 under 2 nM?
Reply: condition met

###

Target chain: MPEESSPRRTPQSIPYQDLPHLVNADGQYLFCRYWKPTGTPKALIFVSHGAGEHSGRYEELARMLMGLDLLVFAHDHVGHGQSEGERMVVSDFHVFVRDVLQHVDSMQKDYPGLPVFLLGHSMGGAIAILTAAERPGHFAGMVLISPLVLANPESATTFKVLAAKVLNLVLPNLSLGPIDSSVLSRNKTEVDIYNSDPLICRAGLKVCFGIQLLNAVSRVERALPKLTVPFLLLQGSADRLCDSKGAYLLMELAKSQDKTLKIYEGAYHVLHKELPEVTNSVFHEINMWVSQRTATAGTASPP
The reader will find reported pIC50 values listed item by item below.
The quantity pIC50 is defined as the negative base-10 logarithm of the molar concentration.

molecule	pIC50
O=C(N1CC2(CC(Cn3cnc(C(F)(F)F)n3)C2)C1)N1CC2(CC(c3cc(C4CC4)n[nH]3)C2)C1 [Example 126]	9.11
O=C(N1CC2(CC(Cn3cnc(C(F)(F)F)n3)C2)C1)N1CC2(CC(n3cnc(C4CC4)n3)C2)C1 [Example 127]	8.97
O=C(N1CC2(CC(Cc3cc(C4CC4)[nH]n3)C2)C1)N1CC2(CC(n3cnc(C(F)F)n3)C2)C1 [Example 342]	8.49
O=C(N1CC2(CCC(Cc3nnc(C(F)(F)F)[nH]3)CC2)C1)N1CC2(CC(n3cnc(C4CC4)n3)C2)C1 [Example 36]	6.52
O=C(N1CC2(CC(n3cnc(C4CC4)n3)C2)C1)N1CC2(CN(Cc3cc(C(F)(F)F)[nH]n3)C2)C1 [Example 242]	8.43

Task item: // lookup pIC50 for O=C(N1CC2(CCN(Cc3cc(C(F)(F)F)[nH]n3)CC2)C1)N1CC2(CC(n3cnc(C(F)(F)F)n3)C2)C1 [Example 28]
Reply: 7.69

Task item: What do we get for O=C(N1CC2(CC(Cc3n[nH]c(C(F)(F)F)n3)C2)C1)N1CC2(CC(n3cnc(C4CC4)n3)C2)C1 [Example 10] ?
Reply: 8.71
